Data origin, for the record: patent US9745265B2

Listed here are molecules together with their documented pIC50.
# Test System: human RORgammaT-Ligand Binding Domain (LBD) (Homo sapiens (Human), UniProt P51449)
# Sequence (P51449 269-508): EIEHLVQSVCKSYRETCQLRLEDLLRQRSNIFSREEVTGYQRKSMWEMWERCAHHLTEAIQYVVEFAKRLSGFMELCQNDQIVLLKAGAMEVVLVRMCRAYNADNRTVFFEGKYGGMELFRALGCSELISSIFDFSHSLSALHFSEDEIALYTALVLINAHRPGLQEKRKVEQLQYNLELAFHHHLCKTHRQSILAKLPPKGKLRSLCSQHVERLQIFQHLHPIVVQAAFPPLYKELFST
# Measurement Protocol: RORγ-Ligand Binding Domain TR-FRET Assay (SRC1_2 co-activator peptide)
# Type: biochemical
# Condition Description: HIS-tagged RORγ-LBD 3 nM, biotinylated SRC1 LXXLL peptide 100 nM, incubated overnight at 4° C., 665/615 nm ratio
pIC50: −log10 of the molar value.
Measurement Name: pIC50

| Molecule | Obs Value |
| --- | --- |
| Cc1cc(N(C)C)cc(Cl)c1C(=O)n1nc(-c2ccc(C(=O)O)cc2F)c2ncccc21 [Example 42A] | 5.63 |
| CN(c1ccc2c(-c3ccc(C(=O)O)cc3F)nn(C(=O)c3c(Cl)cccc3C(F)(F)F)c2c1)S(C)(=O)=O | 5.82 |
| CC(O)C#Cc1ccc2c(-c3ccc(C(=O)O)cc3F)nn(C(=O)c3c(Cl)cccc3C(F)(F)F)c2c1 (stereo not drawn) [Example 12A] | 6.98 |
| O=C(O)c1ccc(-c2nn(C(=O)c3c(Cl)cccc3C(F)(F)F)c3cc(N4CCOCC4)ccc23)cc1 | 5.36 |
| CC(C)(C)OC(=O)Nc1cnc2c(-c3ccc(C(=O)O)cc3F)nn(C(=O)c3c(Cl)cccc3C(F)(F)F)c2c1 [Example 29A] | 6.72 |
| CC(C)(C)OC(=O)Nc1cc2c(-c3ccc(C(=O)O)cc3F)cn(C(=O)c3c(Cl)cccc3C(F)(F)F)c2cn1 [Example 28A] | 6.74 |
| CC(=O)Nc1cc(-c2nn(C(=O)c3c(Cl)cccc3C(F)(F)F)c3ccccc23)ccc1C(=O)O | 5.83 |
| O=C1CCN(C(=O)c2ccc3c(-c4ccc(C(=O)O)cc4F)nn(C(=O)c4c(Cl)cccc4C(F)(F)F)c3c2)CC1 | 8.40 |
| Cc1cc(N2CCOCC2)cc(Cl)c1C(=O)n1nc(-c2ccc(C(=O)O)cc2F)c2ncccc21 [Example 40A] | 5.16 |
